- Test target: Kir1.1 (ROMK1) (Homo sapiens (Human), UniProt P48048)
- Sequence (P48048 whole entry, species assumed): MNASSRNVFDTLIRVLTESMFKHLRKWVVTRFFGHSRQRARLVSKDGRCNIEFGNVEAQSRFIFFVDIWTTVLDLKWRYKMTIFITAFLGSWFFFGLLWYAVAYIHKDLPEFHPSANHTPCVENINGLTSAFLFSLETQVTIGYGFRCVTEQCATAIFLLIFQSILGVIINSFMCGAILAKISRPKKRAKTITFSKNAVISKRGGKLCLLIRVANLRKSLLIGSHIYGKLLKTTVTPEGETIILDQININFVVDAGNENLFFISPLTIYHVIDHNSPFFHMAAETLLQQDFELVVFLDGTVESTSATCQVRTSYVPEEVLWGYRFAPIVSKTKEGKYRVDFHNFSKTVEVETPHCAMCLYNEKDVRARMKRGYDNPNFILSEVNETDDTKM
- Procedure text: Electrophysiology Assay (whole cell voltage clamp, IonWorks Quattro)
- Format: cell-based
- Conditions used: Chinese hamster ovary cells stably expressing Kir1.1; block during voltage step to 0 mV; read-out: Electrophysiology IC50
Measured quantity: pIC50
Numbers only, as −log10 of the molar value.

> print(dat)
                                   compound  measured.quantity  reported.result
1  O=C1OCc2cc(CCN3CCN4C[C@@H](c5ccc6c(c5)COC6=O)OC[C@@H]4C3)ccc21              pIC50             7.40
2  Cc1c([C@@H]2CN3CCN(CC(O)c4ccc5c(c4)C[C@@H](C)OC5=O)C[C@H]3CO2)ccc2c1COC2=O (single isomer, unassigned)              pIC50             6.96

Can you share its pIC50? I mean this compound: `COc1cc(CCN2CCN3C[C@H](c4ccc5c(c4)COC5=O)OC[C@@H]3C2)ccc1C#N` 7.40

----------
- Test target: hROMK (hKir1.1) (Homo sapiens (Human), UniProt P48048)
- Procedure text: Thallium Flux Assay (ROMK channel functional thallium flux, FLIPR-Tetra)
- Type: cell-based
- Conditions used: HEK293 cells stably expressing hROMK (hKir1.1); read-out: Thallium Flux IC50
Structures can show the parent of a compound that is named as a salt.
Measured quantity: pIC50
Answers are plain numbers, as −log10 of the molar value.

> print(dat)
                                   compound  reported.result
1  Cc1c(C(O)CN2CCN3C[C@@H](c4ccc5c(c4C)COC5=O)OC[C@@H]3C2)ccc(F)c1C#N (stereo partly drawn) [Example 13, trifluoroacetate]             6.57
2  Cc1c([C@@H]2CN3CCN(CC(O)c4ccc5c(c4C4CC4)COC5=O)C[C@H]3CO2)ccc2c1COC2=O (single isomer, unassigned) [Example 50]             6.36
3  Cc1c([C@@H]2CN3CCN(CCc4ccc(-n5cnnn5)nc4)C[C@H]3CO2)ccc(F)c1C#N [Example 92]             6.57
4  Cc1c([C@H]2CN3CCN(CCc4ccc5c(c4)COC5=O)C[C@@H]3CN2)ccc(F)c1C#N [Example 106]             6.89
5  Cc1cc(-n2cnnn2)ncc1C(O)CN1CCN2C[C@@H](c3ccc(F)c(C#N)c3C)OC[C@@H]2C1 (single isomer, unassigned) [Example 20]             6.52
6  COc1cc(CCN2CCN3C[C@H](c4ccc5c(c4C)COC5=O)OC[C@H]3C2)ccc1C#N [Example 61]             6.48
7  Cc1c([C@@H]2CN3CCN(CCc4cc(F)c(C#N)c(F)c4)C[C@H]3CO2)ccc2c1COC2=O [Example 98]             6.77
8  Cc1c([C@H]2CN3CCN(CC(O)c4ccc(-n5cnnn5)nc4)C[C@H]3CO2)ccc(F)c1C#N (single isomer, unassigned) [Example 17]             6.07

Give pIC50 for all compounds that follow.
1. Cc1c(C(C)CN2CCN3C[C@@H](c4ccc5c(c4C)COC5=O)OC[C@@H]3C2)ccc2c1COC2=O (stereo partly drawn) [Example 90]
2. COc1cc(CCN2CCN3C[C@H](c4ccc5c(c4C)COC5=O)OC[C@H]3C2)c(F)cc1C#N [Example 97]
3. COc1cc(C(O)CN2CCN3C[C@@H](c4ccc5c(c4C)COC5=O)OC[C@@H]3C2)cc(F)c1C#N (single isomer, unassigned) [Example 54]
4. Cc1c([C@@H]2CN3CCN(CC(O)c4ccc(-n5cnnn5)nc4)C[C@H]3CO2)ccc(F)c1C#N (single isomer, unassigned) [Example 16]

6.96
6.46
6.47
6.25
